test: Pharmacokinetic study in rats (plasma, NCA); conditions: rat, intravenous, 40 nmol/kg, Vss, rat plasma, 40 nmol/kg
assay.readout: Vd (L/kg)
Give the value, in units of L/kg, as a plain number.

Prompt line: Check the records and state Vd for CCCCCC(=O)N[C@H]1CSCc2cc(CSCCNC(=O)CN3CCN(CC(=O)O)CCN(CC(=O)O)CCN(CC(=O)O)CC3)cc(c2)CSC[C@@H](C(=O)O)NC(=O)[C@H](Cc2ccccc2)NC(=O)[C@H](CCC(N)=O)NC(=O)[C@H]([C@@H](C)O)NC(=O)[C@@H]2CCCN2C(=O)[C@@H]2CCCN2C1=O
Response line: 0.48

----------
assay: Pharmacokinetic study in mice (plasma, NCA); details: mouse, intravenous, 4 nmol/kg
assay.readout: half-life (min)
Give your result in min as a bare value.

Prompt line: Report half-life for CCCCCC(=O)N[C@H]1CSCc2cc(CSCCNC(=O)CN3CCN(CC(=O)O)CCN(CC(=O)O)CCN(CC(=O)O)CC3)cc(c2)CSC[C@@H](C(=O)O)NC(=O)[C@H](Cc2ccccc2)NC(=O)[C@H](CCC(N)=O)NC(=O)[C@H]([C@@H](C)O)NC(=O)[C@@H]2CCCN2C(=O)[C@@H]2CCCN2C1=O [3BP-3623]
Response line: 35

----------
assay: in vivo; settings: female, athymic nude, mouse, kidneys, iv, uptake Kidneys 1 h, ^68Ga-labeled; PET/CT; 1 h post tracer injection
Numbered stars: 1 amine (or outer) side, 2 acyl side, 3 side chain; on linkers, the order of the positions; unused ones are H or OH. Bridge positions count the residues as written; N and C are the ends. Square brackets hold non-standard residues; d marks the D form. Peptide text beside a SMILES is read from it. * marks the point of attachment. ξ: configuration not given here. X7 = O=C(CCP(=O)(O)CN1CCN(CP(=O)(O)CO)CCN(CP(=O)(O)CO)CC1)NCCSCc1cc(C[*:1])cc(C[*:2])c1; X11 = O=C(O)CN1CCN(CC(=O)O)CCN(C(CCC(=O)NCCSCc2cc(C[*:1])cc(C[*:2])c2)C(=O)O)CC1; CO = O=C([*:1])[*:2]; ξC = NC(CS)C(=O)O; NHBu = CCCCN*
Can you tell me tissue uptake at 1 h for the items I'm about to list?
// units = %ID/g; emit number, no label

Prompt line: Return tissue uptake at 1 h for the following compound: CCCCNC(=O)N[C@H]1CSCc2cc(CSCCNC(=O)CCP(=O)(O)CN3CCN(CP(=O)(O)CO)CCN(CP(=O)(O)CO)CC3)cc(c2)CSCC(C(=O)O)NC(=O)[C@H](Cc2ccccc2)NC(=O)[C@H](CCC(=O)O)NC(=O)[C@H]([C@@H](C)O)NC(=O)[C@@H]2CCCN2C(=O)[C@@H]2CCCN2C1=O (stereo partly drawn) [3BP-4778] ({NHBu-CO}-CPPTEF[ξC]-OH; linker 1-7 via X7)
Response line: 1.81

Prompt line: Input CCCCNC(=O)N[C@H]1CSCc2cc(CSCCNC(=O)CCP(=O)(O)CN3CCN(CP(=O)(O)CO)CCN(CP(=O)(O)CO)CC3)cc(c2)CSCC(C(=O)O)NC(=O)[C@H](Cc2ccccc2)NC(=O)[C@H](CCC(N)=O)NC(=O)[C@H]([C@@H](C)O)NC(=O)[C@@H]2CCCN2C(=O)[C@@H]2CCCN2C1=O (stereo partly drawn) [3BP-4768] , output reported tissue uptake at 1 h.
Response line: 2.45

Prompt line: Determine its reported tissue uptake at 1 h: CCCCNC(=O)N[C@H]1CSCc2cc(CSCCNC(=O)CCC(C(=O)O)N3CCN(CC(=O)O)CCN(CC(=O)O)CC3)cc(c2)CSCC(C(=O)O)NC(=O)[C@H](Cc2ccccc2)NC(=O)[C@H](CCC(=O)O)NC(=O)[C@H]([C@@H](C)O)NC(=O)[C@@H]2CCCN2C(=O)[C@@H]2CCCN2C1=O (stereo partly drawn) [3BP-4724] ({NHBu-CO}-CPPTEF[ξC]-OH; linker 1-7 via X11)
Response line: 1.87
